Measured values drawn from ChEMBL document CHEMBL3611997 for this set.

- system.name: hERG (Homo sapiens, UniProt Q12809)
- Sequence (Q12809 whole entry): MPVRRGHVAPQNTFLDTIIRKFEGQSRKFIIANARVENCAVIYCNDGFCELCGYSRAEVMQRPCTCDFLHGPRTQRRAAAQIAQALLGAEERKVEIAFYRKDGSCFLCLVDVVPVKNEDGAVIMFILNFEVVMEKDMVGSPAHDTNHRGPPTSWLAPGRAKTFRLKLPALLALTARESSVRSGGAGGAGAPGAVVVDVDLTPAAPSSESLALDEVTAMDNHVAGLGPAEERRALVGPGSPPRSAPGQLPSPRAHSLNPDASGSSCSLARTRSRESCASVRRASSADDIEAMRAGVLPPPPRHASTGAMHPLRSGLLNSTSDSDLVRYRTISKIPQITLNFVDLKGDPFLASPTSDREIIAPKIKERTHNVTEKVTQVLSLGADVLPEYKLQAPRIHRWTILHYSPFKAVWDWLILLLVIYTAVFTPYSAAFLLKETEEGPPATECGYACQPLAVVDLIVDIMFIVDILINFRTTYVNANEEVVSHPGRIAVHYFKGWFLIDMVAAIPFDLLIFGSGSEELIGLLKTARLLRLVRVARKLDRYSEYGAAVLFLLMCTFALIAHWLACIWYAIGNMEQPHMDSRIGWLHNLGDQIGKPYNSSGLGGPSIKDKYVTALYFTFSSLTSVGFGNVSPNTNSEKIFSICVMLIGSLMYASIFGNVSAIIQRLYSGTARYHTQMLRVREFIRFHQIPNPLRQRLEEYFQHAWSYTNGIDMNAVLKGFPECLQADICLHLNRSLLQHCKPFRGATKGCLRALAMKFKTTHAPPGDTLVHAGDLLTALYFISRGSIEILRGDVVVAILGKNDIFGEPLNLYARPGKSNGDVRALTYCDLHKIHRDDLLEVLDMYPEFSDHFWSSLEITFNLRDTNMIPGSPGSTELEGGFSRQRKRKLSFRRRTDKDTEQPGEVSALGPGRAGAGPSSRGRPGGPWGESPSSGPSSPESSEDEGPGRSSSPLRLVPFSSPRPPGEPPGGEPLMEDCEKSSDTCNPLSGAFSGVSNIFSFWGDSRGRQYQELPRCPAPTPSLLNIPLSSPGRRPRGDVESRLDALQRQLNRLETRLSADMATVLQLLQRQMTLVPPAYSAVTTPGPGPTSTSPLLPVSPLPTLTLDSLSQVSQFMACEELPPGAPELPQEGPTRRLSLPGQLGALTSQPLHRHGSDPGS
- test.description: Inhibition of human ERG assessed as reduction of tail current at 0.1 umol/L
# key: entry, value: inhibition at 0.1 µM
Please state the figure in %; there is no need to write the unit.

{"molecular.string": "COc1cc(C(=O)/C=C/c2ccc(F)cc2)cc(OC)c1OC", "system.name": "hERG (Homo sapiens, UniProt Q12809)", "recorded.metric": "inhibition at 0.1 µM", "reported.value": 3.7}

Attention now turns to another entry.
Task: Look up inhibition at 0.1 µM: COc1cccc(OC)c1C(=O)/C=C/c1ccco1
Result: 12.5

* * *

- system.name: hERG (Homo sapiens, UniProt Q12809)
- test.description: Inhibition of human ERG assessed as reduction of tail current at 10 umol/L
recorded.metric: inhibition at 10 µM (%)
Please state the figure in %; there is no need to write the unit.

{"molecular.string": "COc1cc(C(=O)/C=C/c2ccc(F)cc2)cc(OC)c1OC", "inhibition at 10 µM [%]": 28.3}

Task: Look up inhibition at 10 µM: COc1cccc(OC)c1C(=O)/C=C/c1ccco1
Result: 33.5
